This collection of values is drawn from ChEMBL document CHEMBL1131891.

Organism: Oryctolagus cuniculus
Experiment: Inhibitory activity against platelet aggregation induced by collagen in washed rabbit platelet
Assay type: functional
reported_property: IC50

Can you look up the measured IC50 of "CC(=O)Oc1ccccc1C(=O)O" for me? > 1000 µM

====

Organism: Oryctolagus cuniculus
Test: Inhibitory activity against platelet aggregation induced by platelet activating factor(PAF) in washed rabbit platelet
Assay type: functional
Conditions: read-out: IC50
Provide the reported IC50 of each item.
Give bare numbers, in µM.

Can you look up the measured IC50 of COc1cc2c(cc1OC)C(O)C1c3c(cc(OC)c(OC)c3-2)CCN1C (configuration not stated) for me? 52.6

New cases:
Can you look up the measured IC50 of COc1cc2c(cc1OC)C(O)C1c3c(c(OC)c(OC)c(OC)c3-2)CCN1C (configuration not stated) for me? 11.8

====

Organism: Oryctolagus cuniculus
Assay: Effect on platelet aggregation induced by collagen in washed rabbit platelet
Type: functional
reported_property: Aggregation
State the value with its unit after it.

Some entries whose results are on file:
Can you look up the measured Aggregation of COc1cc2c(cc1OC)C(O)C1c3c(c(OC)c(OC)c(OC)c3-2)CCN1C (centres undefined) for me? 0%

Can you look up the measured Aggregation of CC(=O)Oc1ccccc1C(=O)O [ASPIRIN] for me? 87.4%

Can you look up the measured Aggregation of CN1CCc2cc3c(c4c2[C@H]1Cc1ccccc1-4)OCO3.Cl [REMERINE HYDROCHLORIDE] for me? 0%

Can you look up the measured Aggregation of "COc1ccc2c(c1OC)-c1c3c(cc4c1[C@H](C2)[N+](C)(C)CC4)OCO3.[I-]" for me? 77.6%

Can you look up the measured Aggregation of "COc1cc2c(cc1O)C[C@H]1c3c(cc(OC)c(OC)c3-2)CC[N+]1(C)C.[I-]" for me? 81.3%

Go through the list and state Aggregation for each entry.
1. Br.COc1c(O)ccc2c1-c1c3c(cc4c1[C@H](C2)NCC4)OCO3
2. COc1cc2c3c(c1OC)-c1ccccc1C[C@@H]3NCC2
3. CC1=NN(c2ccc([N+](=O)[O-])cc2)C(=O)C1[N+](=O)[O-].COc1cc2c(cc1O)C[C@@H]1NCCc3cc(O)c(OC)c-2c31
4. COc1c(O)ccc2c1-c1c(OC)c(O)cc3c1[C@H](C2)[N+](C)(C)CC3.[I-]

1. 0%
2. 0%
3. 4.6%
4. 89.8%
